target: JAK3 (h) (Homo sapiens, UniProt P52333); construct: purchased Eurofins; assay: Radioisotope labeling kinase assay (Eurofins), JAK3; assay type: biochemical; details: 1 μM compound; read-out: Inhibitory activity per unit concentration/Activity % JAK3 (h)
Sequence (P52333 whole entry): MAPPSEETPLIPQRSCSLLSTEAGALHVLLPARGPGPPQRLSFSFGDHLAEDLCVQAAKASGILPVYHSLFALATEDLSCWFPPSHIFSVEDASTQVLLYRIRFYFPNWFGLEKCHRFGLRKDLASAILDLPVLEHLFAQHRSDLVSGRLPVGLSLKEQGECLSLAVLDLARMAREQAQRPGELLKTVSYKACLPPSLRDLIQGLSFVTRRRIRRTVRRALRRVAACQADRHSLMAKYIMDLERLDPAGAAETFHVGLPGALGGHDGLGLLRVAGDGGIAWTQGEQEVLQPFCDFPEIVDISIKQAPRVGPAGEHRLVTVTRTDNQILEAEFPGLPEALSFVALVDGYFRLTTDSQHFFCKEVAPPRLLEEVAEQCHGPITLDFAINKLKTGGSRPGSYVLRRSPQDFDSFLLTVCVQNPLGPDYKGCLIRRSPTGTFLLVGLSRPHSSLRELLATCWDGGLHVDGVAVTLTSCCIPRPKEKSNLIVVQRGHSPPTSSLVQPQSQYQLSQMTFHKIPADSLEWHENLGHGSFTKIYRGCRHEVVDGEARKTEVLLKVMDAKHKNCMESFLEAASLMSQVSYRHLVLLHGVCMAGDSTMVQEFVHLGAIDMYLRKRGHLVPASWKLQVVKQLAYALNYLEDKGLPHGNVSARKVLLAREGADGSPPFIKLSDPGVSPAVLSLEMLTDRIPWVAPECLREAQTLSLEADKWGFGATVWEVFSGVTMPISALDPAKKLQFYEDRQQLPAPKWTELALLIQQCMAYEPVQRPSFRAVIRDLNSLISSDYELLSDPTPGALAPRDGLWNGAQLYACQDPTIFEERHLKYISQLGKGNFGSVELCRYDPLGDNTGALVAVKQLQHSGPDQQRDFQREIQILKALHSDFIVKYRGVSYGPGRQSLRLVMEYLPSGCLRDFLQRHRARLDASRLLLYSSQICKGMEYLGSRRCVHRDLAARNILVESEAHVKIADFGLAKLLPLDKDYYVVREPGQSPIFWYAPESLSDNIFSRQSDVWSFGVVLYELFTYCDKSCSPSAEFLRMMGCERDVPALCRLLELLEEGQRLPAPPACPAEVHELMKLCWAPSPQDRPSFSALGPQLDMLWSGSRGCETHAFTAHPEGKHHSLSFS
measurement-kind: activity at 1 µM (%)

// worked examples, activity at 1 µM included
compound	value-units	reported-result
O=C(/C=C/CNC1CCOC1)Nc1cc2cc(c1)Nc1nccc(n1)-c1cccc(c1)COC/C=C/COC2 (stereo not drawn)	%	6
O=C(/C=C/C(=O)N1CCCC1)Nc1cc2cc(c1)Nc1nccc(n1)-c1cccc(c1)COC/C=C/COC2	%	17
N#Cc1ccc(/C=C/C(=O)Nc2cc3cc(c2)Nc2nccc(n2)-c2cccc(c2)COC/C=C/COC3)cc1	%	56
O=C(/C=C/COc1cc2cc(c1)Nc1nccc(n1)-c1cccc(c1)COC/C=C/COC2)N1CCCC1	%	34

(A) CN(C)C/C=C/C(=O)Nc1cc2cc(c1)Nc1nccc(n1)-c1cccc(c1)COC/C=C/COC2
(B) CN1C/C=C/COCc2cccc(c2)-c2ccnc(n2)Nc2cc(N)cc(c2)C1
[ask] Between A and B , which one shows the smaller activity at 1 µM number? Mark your answer with the label of the selected entry.
[reply] A
(A: 19%, B: 77%)

====

Biological target: Flt3 (h) (Homo sapiens)
Construct: purchased Eurofins
Sequence (P36888 27-993): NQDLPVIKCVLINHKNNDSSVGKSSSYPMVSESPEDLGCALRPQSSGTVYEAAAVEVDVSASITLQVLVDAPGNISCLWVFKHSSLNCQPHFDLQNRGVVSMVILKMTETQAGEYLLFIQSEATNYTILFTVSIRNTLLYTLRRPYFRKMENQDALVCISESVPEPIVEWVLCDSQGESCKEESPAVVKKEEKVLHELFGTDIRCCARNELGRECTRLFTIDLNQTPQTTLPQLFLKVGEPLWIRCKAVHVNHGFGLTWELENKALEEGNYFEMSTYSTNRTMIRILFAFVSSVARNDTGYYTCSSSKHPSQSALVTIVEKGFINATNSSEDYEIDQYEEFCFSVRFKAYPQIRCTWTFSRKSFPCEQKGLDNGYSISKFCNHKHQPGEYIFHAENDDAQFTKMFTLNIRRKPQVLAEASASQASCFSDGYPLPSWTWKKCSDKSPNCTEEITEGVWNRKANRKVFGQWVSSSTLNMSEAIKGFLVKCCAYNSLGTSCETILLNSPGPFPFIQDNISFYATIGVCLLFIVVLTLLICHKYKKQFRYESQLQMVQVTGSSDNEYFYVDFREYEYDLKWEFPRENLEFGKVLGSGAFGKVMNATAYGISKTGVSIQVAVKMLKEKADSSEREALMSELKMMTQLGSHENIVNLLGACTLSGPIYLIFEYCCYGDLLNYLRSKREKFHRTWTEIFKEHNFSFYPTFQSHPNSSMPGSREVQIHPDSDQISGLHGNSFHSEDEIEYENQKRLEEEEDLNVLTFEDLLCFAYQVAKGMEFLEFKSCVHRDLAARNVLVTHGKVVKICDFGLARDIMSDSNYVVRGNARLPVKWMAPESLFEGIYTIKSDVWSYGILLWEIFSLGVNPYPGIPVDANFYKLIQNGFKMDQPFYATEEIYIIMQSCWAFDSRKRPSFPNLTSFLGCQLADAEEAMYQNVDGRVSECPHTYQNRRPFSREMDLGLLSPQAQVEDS
Experiment: Radioisotope labeling kinase assay (Eurofins), Flt3
Format: biochemical
Conditions: 1 μM compound; read-out: Inhibitory activity per unit concentration/Activity % Flt3 (h)
measurement-kind: activity at 1 µM (%)

(I) O=C(C#CCN1CCOCC1)Nc1cc2cc(c1)Nc1nccc(n1)-c1cccc(c1)COC/C=C/COC2 [XVII-3]
(II) O=C(/C=C/COc1ccc2cc1Nc1nccc(n1)-c1cccc(c1)COC/C=C/COC2)N1CCCC1 [XVI-21]
[ask] activity at 1 µM comparison. Which is larger, I or II ? Output the label that corresponds to your choice.
[reply] II
(II: 82%, I: 2%)

(A) O=C(/C=C/C(F)(F)F)Nc1cc2cc(c1)Nc1nccc(n1)-c1cccc(c1)COC/C=C/COC2 [XVI-5]
(B) CN1C/C=C/COCc2cccc(c2)-c2ccnc(n2)Nc2cc(cc(NC(=O)/C=C/CN3CCCC3)c2)C1 [XVI-25]
(C) CN1CCC(NC(=O)/C=C/COc2ccc3cc2Nc2nccc(n2)-c2cccc(c2)COC/C=C/COC3)C1 (centres unmarked) [XVI-24]
(D) C#CC(=O)Nc1cc2cc(c1)Nc1nccc(n1)-c1cccc(c1)COC/C=C/COC2 [XVII-1]
[ask] Which order do these items take when sorted by rising activity at 1 µM? List them. Record the ranking as a list of labels in the requested order.
[reply] D, B, A, C

(1) CCCC#CC(=O)Nc1cc2cc(c1)Nc1nccc(n1)-c1cccc(c1)COC/C=C/CN(C)C2 [XVII-4]
(2) C1=C/COCc2cccc(c2)-c2ccnc(n2)Nc2cc(cc(OC/C=C/CN3CCOCC3)c2)COC/1 [XVI-16]
(3) CN1C/C=C/COCc2cccc(c2)-c2ccnc(n2)Nc2cc(cc(NC(=O)/C=C/C(F)(F)F)c2)C1 [XVI-29]
[ask] Give the ascending ranking of the items by reported activity at 1 µM. Ranked list of labels, please, in the requested order.
[reply] 1, 3, 2
(1: 7%, 3: 10%, 2: 20%)

(1) CN1C/C=C/COCc2cccc(c2)-c2ccnc(n2)Nc2cc(cc(NC(=O)/C=C/CN3CCOCC3)c2)C1 [XVI-30]
(2) O=C(/C=C/CNC1CCOC1)Nc1cc2cc(c1)Nc1nccc(n1)-c1cccc(c1)COC/C=C/COC2 (centres unmarked) [XVI-15]
[ask] Could you tell me which of these two has the smaller activity at 1 µM figure? First: 1 Second: 2 # reply format: chosen label
[reply] 1

(1) C/C=C/C(=O)Nc1cc2cc(c1)Nc1nccc(n1)-c1cccc(c1)COC/C=C/CN(C)C2 [XVI-28]
(2) CCCC#CC(=O)Nc1cc2cc(c1)Nc1nccc(n1)-c1cccc(c1)COC/C=C/COC2 [XVII-2]
[ask] When their activity at 1 µM values are compared, which is larger, 1 or 2 ? The response must carry the label of the picked entry.
[reply] 1
